This collection of values is drawn from PubChem BioAssay AID485344.

target: D(2) dopamine receptor (Homo sapiens) (UniProt P14416); test: HTS Assay for Allosteric Antagonists of the Human D2 Dopamine Receptor: Primary Screen for Antagonists; details: HEK293 TREx D2 cells, calcium flux, dopamine EC80; at 10 µM
Sequence (P14416 whole entry, looked up): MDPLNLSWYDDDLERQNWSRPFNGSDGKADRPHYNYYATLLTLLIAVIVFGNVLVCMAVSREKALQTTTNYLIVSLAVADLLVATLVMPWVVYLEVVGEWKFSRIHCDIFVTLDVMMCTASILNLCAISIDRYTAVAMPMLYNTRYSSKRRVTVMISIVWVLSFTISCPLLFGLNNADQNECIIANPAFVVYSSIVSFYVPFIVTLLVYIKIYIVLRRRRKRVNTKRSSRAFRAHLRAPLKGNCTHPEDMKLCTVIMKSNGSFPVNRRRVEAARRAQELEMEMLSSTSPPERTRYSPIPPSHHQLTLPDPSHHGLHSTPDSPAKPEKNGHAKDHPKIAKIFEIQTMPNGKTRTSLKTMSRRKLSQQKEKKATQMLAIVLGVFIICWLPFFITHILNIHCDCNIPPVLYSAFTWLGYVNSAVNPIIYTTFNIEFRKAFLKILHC
Out of some 340,000 compounds screened, about 6,900 (2%) were called active. No stated cut-off is given here; in the data, active means inhibition above about 30%; inactive means below that, where a call was filed. The sample holds actives, similar compounds and a random draw of the others, so the mix is not that of the screen.
Pick one: active, inactive

Check out these entries, answers already filled in.
{"MOLECULE": "O=C(CCN1CCN(C/C=C/c2ccccc2)CC1)Nc1ccccc1Cl", "LABEL": "active"}
{"MOLECULE": "CCOC(=O)c1cc2sccc2n1Cc1ccc(C#N)cc1", "LABEL": "active"}

Prompt: Give the logged outcome of this assay for the following molecule: O=C(CN1CCN(c2ccccc2O)CC1)NC(=O)NCc1ccccc1
Completion: inactive

Prompt: Each molecule tested received a call. Report the one for O=C(NC(=O)c1ccccc1)Nc1ccccc1O .
Completion: active

Prompt: Outcome logged for O=C(NCCCn1ccnc1)c1cc(-c2ccccc2)on1 in this assay:
Completion: inactive

Prompt: For this molecule, state the assay outcome: Cc1cc(C(=O)Nc2nnc(C3CC3)s2)c(C)s1
Completion: inactive

Prompt: Which result was noted for this molecule in the test: O=C(CCN1CCN(C/C=C/c2ccccc2)CC1)Nc1cccc(F)c1
Completion: inactive

Prompt: Record request — test call for COc1cc(CC(=O)N/N=C/c2ccccc2)c([N+](=O)[O-])cc1OC
Completion: active

Prompt: GET /call?item= COc1ccc(-c2cc(C(=O)NCCCn3ccnc3)no2)cc1 returns the recorded outcome of this test.
Completion: inactive

Prompt: Per the assay record, what outcome was assigned to CC(C)Oc1ccc(C(=O)NCC(=O)Nc2ccc3c(c2)CCC3)cc1 ?
Completion: inactive

Prompt: Query: recorded result category for Cc1ccc(C(=O)CN2C(=O)NC3(CCOc4ccccc43)C2=O)s1 (centres undefined) in this test
Completion: inactive

Prompt: // param item: O=C(c1cc2sccc2n1Cc1ccc(F)cc1)N1CCc2ccccc21 ; yields the recorded call
Completion: inactive

Prompt: Dear all, I need the recorded test outcome for N#Cc1ccc(OCC(=O)NC(=O)NC2CCS(=O)(=O)C2)cc1 (centres undefined) , thank you.
Completion: active

Prompt: In this assay, the call recorded for Cc1cccc(Nc2nnc(SCC(=O)c3c(N)n(C4CC4)c(=O)[nH]c3=O)s2)c1C was what?
Completion: inactive
